Reference for the values: patent US20020165130A1

Give measured Diameters of zones of inhibition for each item. Keep answers brief.
Test system: Staphylococcus aureus ATCC 6538
Assay: Antibiotic disc assay (zones of inhibition), S. aureus
Format: cell-based
Details: antibiotic disc with 2 mM nerolidol (N) in agar overlay
Give the value; after it, write the unit.

Example entries and their recorded answers appear below.
Structure notation: CC[C@H]1OC(=O)[C@H](C)[C@@H](O[C@H]2C[C@@](C)(OC)[C@@H](O)[C@H](C)O2)[C@H](C)[C@@H](O[C@@H]2O[C@H](C)C[C@H](N(C)C)[C@H]2O)[C@](C)(O)C[C@@H](C)C(=O)[C@H](C)[C@@H](O)[C@]1(C)O
System under test: Staphylococcus aureus ATCC 6538
Diameters of zones of inhibition: 33 millimeters
//
Structure notation: CN[C@H](CC(C)C)C(=O)N[C@H]1C(=O)N[C@@H](CC(N)=O)C(=O)N[C@H]2C(=O)N[C@H]3C(=O)N[C@H](C(=O)N[C@H](C(=O)O)c4cc(O)cc(O)c4-c4cc3ccc4O)[C@H](O)c3ccc(c(Cl)c3)Oc3cc2cc(c3O[C@@H]2O[C@H](CO)[C@@H](O)[C@H](O)[C@H]2O[C@H]2C[C@](C)(N)[C@H](O)[C@H](C)O2)Oc2ccc(cc2Cl)[C@H]1O
System under test: Staphylococcus aureus ATCC 6538
Diameters of zones of inhibition: 25 millimeters
//
Structure notation: CN(C)[C@@H]1C(O)=C(C(N)=O)C(=O)[C@@]2(O)C(O)=C3C(=O)c4c(O)cccc4[C@@](C)(O)[C@H]3C[C@@H]12
System under test: Staphylococcus aureus ATCC 6538
Diameters of zones of inhibition: 32.5 millimeters

Form field Diameters of zones of inhibition, entry CCC[C@@H]1C[C@@H](C(=O)N[C@@H]([C@H]2O[C@H](SC)[C@H](O)[C@@H](O)[C@H]2O)[C@H](C)Cl)N(C)C1 : 35.5 millimeters
